- measuredTarget: T1, mTfR-1 I378A on Expi293 cells (mouse, UniProt Q62351 1-763)
- T1 construct: whole, on cells
- T1 sequence (Q62351 whole entry I378A): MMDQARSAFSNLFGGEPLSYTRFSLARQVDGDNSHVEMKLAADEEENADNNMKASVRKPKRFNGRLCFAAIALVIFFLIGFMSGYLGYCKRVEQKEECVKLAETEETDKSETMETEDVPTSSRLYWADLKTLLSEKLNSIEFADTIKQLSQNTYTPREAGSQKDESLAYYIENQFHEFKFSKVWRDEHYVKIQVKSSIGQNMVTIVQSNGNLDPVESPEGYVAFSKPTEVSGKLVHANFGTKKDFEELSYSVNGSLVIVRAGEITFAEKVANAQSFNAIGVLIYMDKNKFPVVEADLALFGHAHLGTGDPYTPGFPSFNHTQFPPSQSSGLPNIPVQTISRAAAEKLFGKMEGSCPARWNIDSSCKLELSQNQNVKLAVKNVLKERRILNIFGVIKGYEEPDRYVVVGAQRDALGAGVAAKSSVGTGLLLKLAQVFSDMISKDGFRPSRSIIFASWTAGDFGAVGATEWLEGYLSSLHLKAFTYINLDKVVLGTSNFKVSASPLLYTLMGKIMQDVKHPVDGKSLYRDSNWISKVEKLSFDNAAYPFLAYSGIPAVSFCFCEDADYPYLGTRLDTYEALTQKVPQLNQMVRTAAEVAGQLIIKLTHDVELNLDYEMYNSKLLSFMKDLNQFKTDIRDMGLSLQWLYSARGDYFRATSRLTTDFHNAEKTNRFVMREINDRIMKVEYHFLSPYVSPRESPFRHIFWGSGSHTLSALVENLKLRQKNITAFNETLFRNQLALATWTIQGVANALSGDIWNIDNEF
- testProtocol: FACS, transfected Expi293 cells
measurementName: % double-positive cells vs WT (%)

binder: 8D3 antibody (anti-mouse TfR-1 control; 8D3-hFc formatted antibody) (antibody, V domains shown) VH: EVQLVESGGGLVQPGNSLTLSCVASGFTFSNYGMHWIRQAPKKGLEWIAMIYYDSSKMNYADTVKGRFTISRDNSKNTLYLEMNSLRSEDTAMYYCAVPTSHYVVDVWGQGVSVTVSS VL: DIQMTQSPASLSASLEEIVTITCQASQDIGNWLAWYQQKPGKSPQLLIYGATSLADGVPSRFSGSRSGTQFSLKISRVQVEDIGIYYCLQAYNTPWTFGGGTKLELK
endpointResult: 92
--
binder: Clone C variant 13 VNAR-hFc (Fc fusion, not shown: a dimerising Fc or GST, also called Clone C v13; Clone C var; 13) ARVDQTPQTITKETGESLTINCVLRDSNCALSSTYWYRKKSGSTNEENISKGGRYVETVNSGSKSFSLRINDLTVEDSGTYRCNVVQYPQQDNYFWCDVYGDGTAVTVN
endpointResult: 115
--
binder: Clone C variant 18 VNAR-hFc (Fc fusion, not shown: a dimerising Fc or GST, also called Clone C v18; Clone C var; 18) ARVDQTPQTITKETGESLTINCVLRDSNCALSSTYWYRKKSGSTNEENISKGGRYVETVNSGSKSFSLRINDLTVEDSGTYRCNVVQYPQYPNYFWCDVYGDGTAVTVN
endpointResult: 80
--
binder: Clone C VNAR-hFc fusion (Fc fusion, not shown: a dimerising Fc or GST, bivalent VNAR-Fc; also called Clone C-hFc) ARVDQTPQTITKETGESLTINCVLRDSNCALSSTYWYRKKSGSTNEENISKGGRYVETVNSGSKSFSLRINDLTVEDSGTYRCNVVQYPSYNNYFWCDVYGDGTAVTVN
endpointResult: 142
